System: Nucleic Acid
Assay: Binding affinity to DNA
Assay type: nucleic-acid assay
EXPERIMENTAL_ENDPOINT: log K

> print(dat)
                              sample.smiles  experimental.endpoint  endpoint.result
1  CN(C)CCNC(=O)c1ccc2c(NCCN=[N+]=[N-])c3ccccc3nc2c1                  log K             6.37
2  CN1CCN(C(=O)c2cccc3c(NCCn4nnc5ccccc54)c4ccccc4nc23)CC1                  log K             5.65
3  CN(C)CCNC(=O)c1ccc2c(NCCn3nnc4ccccc43)c3ccccc3nc2c1                  log K             6.54
4  CN1CCN(C(=O)c2ccc3c(NCCn4nnc5ccccc54)c4ccccc4nc3c2)CC1                  log K              6.2
5  CN(C)CCNC(=O)c1cccc2c(NCCn3nnc4ccccc43)c3ccccc3nc12                  log K             6.14
6  CN(C)CCNC(=O)c1cccc2c(NCCN=[N+]=[N-])c3ccccc3nc12                  log K             6.49
